- Test system: HEK-Blue IL-17 cells with rhIL-17A/A
- experiment.description: HEK-Blue IL-17 cell assay (SEAP reporter, rhIL-17A/A stimulation)
- Assay type: cell-based, human
- particulars: Homo sapiens, HEK-Blue, 20 h, 20 hours incubation, absorbance at 405 nm, read-out: IC50 in HEK-Bule cell Assay
pIC50: −log10 of the molar value.
Decision: pIC50 compared against 7; not below it gives Condition met, below it gives Condition not met.

| molecule | study.system | category |
| --- | --- | --- |
| CC(C)n1nccc1C(=O)N[C@H](C(=O)Nc1ccc2c(c1)OC1(CCC(C)(C)CC1)CC2C(=O)N1CC(F)(F)C1)C1CCCCCC1 (stereo partly drawn) | HEK-Blue IL-17 cells with rhIL-17A/A | Condition not met |
| CC(C)n1nccc1C(=O)N[C@H](C(=O)Nc1ccc2c(c1)OC(C)(C)C[C@H]2NC(=O)CCC(F)(F)F)C1CCCCCC1 | HEK-Blue IL-17 cells with rhIL-17A/A | Condition not met |
| CC(C)n1nccc1C(=O)N[C@H](C(=O)Nc1ccc2c(c1)OC1(CCOCC1)CN2C(=O)N1CC(F)(F)C1)C(C1CC1)C1CC1 | HEK-Blue IL-17 cells with rhIL-17A/A | Condition met |

Does the molecule CC(C)n1nccc1C(=O)N[C@H](C(=O)Nc1ccc2c(c1)S(=O)(=O)CCC2C(=O)N1CC(F)(F)C(F)(F)C1)C1CCCCCC1 (stereo partly drawn) have recorded pIC50 that is 7 or more?
Condition not met

Does the molecule CC(C)n1nccc1C(=O)N[C@H](C(=O)Nc1ccc2c(c1)O[C@@H](C1CC(F)(F)C1)C[C@H]2C(=O)N1CC(F)(F)C1)C(C1CC1)C1CC1 have recorded pIC50 that is 7 or more?
Condition met

Does the molecule CC(C)C1CN(C(=O)N2CC(F)(F)C2)c2ccc(NC(=O)[C@@H](NC(=O)c3ccnn3C(C)C)C(C3CC3)C3CC3)cc2O1 (stereo partly drawn) have recorded pIC50 that is 7 or more?
Condition met

###

Would you mind telling me the reported pIC50 of each entry?
- System: HEK-Blue IL-17 cells with rhIL-17A/A
- experiment.description: HEK-Blue IL-17 cell assay (SEAP reporter, rhIL-17A/A stimulation)
- Type: cell-based, human
- particulars: Homo sapiens, HEK-Blue, 20 h, 20 hours incubation, absorbance at 405 nm, read-out: IC50 in HEK-Bule cell Assay
- Experimental: • 1. The test Compounds were 3-fold serial diluted from 10 mM for 10 doses in DMSO. • 2. Prepare Reference Compounds (IL-17A-Inhibitor-1) were 3-fold serial diluted from 1 mM for 10 doses in DMSO. • 3. Prepare 1000× Positive control (1 mM IL-17A-Inhibitor-1) and 1000× vehicle control (100% DMSO). • a) Cells were cultured as the HEK-Blue™ IL-17 technical data sheet recommended. […] RLU signal (LUMcmpd) is calculated for each well. % Inhibition is calculated as follow: […]
Numbers only, as −log10 of the molar value.

Solved entries:
| compound | study.system | measured.property | test.result |
| --- | --- | --- | --- |
| CC(C)n1nccc1C(=O)N[C@H](C(=O)Nc1ccc2c(c1)OCC[C@H]2NC(=O)CCC(F)(F)F)C1CCCCCC1 | HEK-Blue IL-17 cells with rhIL-17A/A | pIC50 | 6.68 |
| CC(C)C1CC(C(=O)N2CC(F)(F)C2)c2ccc(NC(=O)[C@@H](NC(=O)OC3CC(F)(F)C3)C3CCCCCC3)cc2O1 (stereo partly drawn) | HEK-Blue IL-17 cells with rhIL-17A/A | pIC50 | 6.25 |
| CC(C)n1nccc1C(=O)N[C@H](C(=O)Nc1cc2c(cc1F)C(C(=O)N1CC(F)(F)C1)CC1(CCOCC1)O2)C1CCCCCC1 (stereo partly drawn) | HEK-Blue IL-17 cells with rhIL-17A/A | pIC50 | 7.83 |

Consider the following items and state reported pIC50 for each.
1. CC(C)n1nccc1C(=O)N[C@H](C(=O)Nc1ccc2c(c1)CCCC2C(=O)N1CC(F)(F)C(F)(F)C1)C1CCCCCC1 (stereo partly drawn)
2. CC(C)n1nccc1C(=O)N[C@H](C(=O)Nc1ccc2c(c1)O[C@@H](C1CC(F)(F)C1)C[C@H]2C(=O)N1CC(F)(F)C1)C1CCC(F)(F)CC1
3. O=C(N[C@H](C(=O)Nc1ccc2c(c1)OC(C1CC(F)(F)C1)CC2C(=O)N1CC(F)(F)C1)C1CCCCCC1)OCc1cc(C(F)F)on1 (stereo partly drawn)

1. 6.85
2. 7.32
3. 6.77

###

Would you mind telling me the reported pIC50 of each entry?
- Tested on: HEK-Blue IL-17 cells with rhIL-17A/A
- experiment.description: HEK-Blue IL-17 cell assay (SEAP reporter, rhIL-17A/A stimulation)
- Assay type: cell-based, human
- particulars: Homo sapiens, HEK-Blue, 20 h, 20 hours incubation, absorbance at 405 nm, read-out: IC50 in HEK-Bule cell Assay
Answers are plain numbers, as −log10 of the molar value.

| molecule | pIC50 |
| --- | --- |
| CC(C)n1nccc1C(=O)N[C@H](C(=O)Nc1cc2c(cc1F)C(C(=O)N1CC(F)(F)C1)CC1(CCOCC1)O2)C(C1CC1)C1CC1 (stereo partly drawn) [Compound 237] | 7.58 |
| CC(C)n1nccc1C(=O)N[C@H](C(=O)Nc1ccc2c(c1)OCCC2C(=O)N1CCC(F)(F)CC1)C1CCCCCC1 (stereo partly drawn) [Compound 206] | 6.43 |
| CC(C)n1nccc1C(=O)N[C@H](C(=O)Nc1ccc2c(c1)OC1(CCOCC1)C[C@H]2C(=O)N1CC(F)(F)C1)C1CCCCCC1 [Compound 152] | 8.13 |
| CC(C)n1nccc1C(=O)N[C@H](C(=O)Nc1ccc2c(c1)OCC[C@H]2NS(=O)(=O)CCC(F)(F)F)C1CCCCCC1 [Compound 5] | 6.48 |
| CC(C)n1nccc1C(=O)N[C@H](C(=O)Nc1ccc2c(c1)OC(C1CC(F)(F)C1)CC2C(=O)N1CC(C(F)F)C1)C1CCCCCC1 (stereo partly drawn) [Compound 232] | 7.11 |

Switching to the query record.
Which pIC50 value is on record for CC(C)[C@H]1C[C@@H](C(=O)N2CC(F)(F)C2)c2ccc(NC(=O)[C@@H](NC(=O)c3ccnn3C(C)C)C(C3CC3)C3CC3)cc2O1 [Compound 161] ?
7.36

###

- System: HEK-Blue IL-17 cells with rhIL-17A/A
- experiment.description: HEK-Blue IL-17 cell assay (SEAP reporter, rhIL-17A/A stimulation)
- Format: cell-based, human
- particulars: 20 hours incubation, absorbance at 405 nm, read-out: IC50 in HEK-Bule cell Assay
measured.property: pIC50
Answers are plain numbers, as −log10 of the molar value.

| compound | test.result |
| --- | --- |
| CC(C)n1nccc1C(=O)N[C@H](C(=O)Nc1ccc2c(c1)O[C@H](C1CC(F)(F)C1)C[C@H]2C(=O)N1CC(F)(F)C1)C1CCCCCC1 [Compound 226] | 7.31 |

Switching to the query record.
Which pIC50 value is on record for CC(C)n1nccc1C(=O)N[C@H](C(=O)Nc1ccc2c(c1)O[C@@H](C1CC(F)(F)C1)C[C@H]2C(=O)N1CC(F)(F)C1)C1CCCCCC1 [Compound 228] ?
7.56

###

Would you mind telling me the reported IC50 of each entry?
- Test system: HEK-Blue IL-17 cells with rhIL-17A/A
- experiment.description: HEK-Blue IL-17 cell assay (SEAP reporter, rhIL-17A/A stimulation)
- Assay type: cell-based, human
- particulars: Homo sapiens, HEK-Blue, 20 h, 20 hours incubation, absorbance at 405 nm, read-out: IC50 in HEK-Bule cell Assay
One number for each entry, in nM.

Solved entries:
| compound | measured.property | test.result |
| --- | --- | --- |
| CC(C)n1nccc1C(=O)N[C@H](C(=O)Nc1ccc2c(c1)OC1(CCC(F)(F)CC1)CC2C(=O)N1CC(F)(F)C1)C(C1CC1)C1CC1 (stereo partly drawn) [Compound 243] | IC50 | 122 |
| O=C(N[C@H](C(=O)Nc1ccc2c(c1)OC1(CCOCC1)CC2C(=O)N1CC(F)(F)C1)C1CCCCCC1)OC[C@@H]1CC1(F)F (stereo partly drawn) [Compound 190] | IC50 | 367 |
| CC(C)n1nccc1C(=O)N[C@H](C(=O)Nc1ccc2c(c1)OC(C1CCCCC1)CC2C(=O)N1CC(F)(F)C1)C1CCCCCC1 (stereo partly drawn) [Compound 212] | IC50 | 213 |

Consider the following items and state reported IC50 for each.
1. CC(C)[C@H]1C[C@@H](C(=O)N2CC(F)(F)C(F)(F)C2)c2ccc(NC(=O)[C@@H](NC(=O)c3ccnn3C(C)C)C3CCCCCC3)cc2O1 [Compound 215]
2. CC(C)n1nccc1C(=O)N[C@H](C(=O)Nc1ccc2c(c1)OCC(C)(C)[C@H]2NC(=O)CCC(F)(F)F)C1CCCCCC1 [Compound 12]

40.7
317

Which IC50 value is on record for CC(C)n1nccc1C(=O)N[C@H](C(=O)Nc1cc2c(cc1F)C(C(=O)N1CC(F)(F)C1)CC(C1CC(F)(F)C1)O2)C1CCCCCC1 (stereo partly drawn) [Compound 193] ?
39.7
